Items are presented alongside their recorded Mean Fluorescence Intensity (MFI), uptake 37C-4C, at 7 nM.
- testedTarget: T1, human sortilin stably expressed on HEK 293 cells (HEK-SORT1 cells) (human, UniProt Q99523 78-831)
- T1 sequence (looked up): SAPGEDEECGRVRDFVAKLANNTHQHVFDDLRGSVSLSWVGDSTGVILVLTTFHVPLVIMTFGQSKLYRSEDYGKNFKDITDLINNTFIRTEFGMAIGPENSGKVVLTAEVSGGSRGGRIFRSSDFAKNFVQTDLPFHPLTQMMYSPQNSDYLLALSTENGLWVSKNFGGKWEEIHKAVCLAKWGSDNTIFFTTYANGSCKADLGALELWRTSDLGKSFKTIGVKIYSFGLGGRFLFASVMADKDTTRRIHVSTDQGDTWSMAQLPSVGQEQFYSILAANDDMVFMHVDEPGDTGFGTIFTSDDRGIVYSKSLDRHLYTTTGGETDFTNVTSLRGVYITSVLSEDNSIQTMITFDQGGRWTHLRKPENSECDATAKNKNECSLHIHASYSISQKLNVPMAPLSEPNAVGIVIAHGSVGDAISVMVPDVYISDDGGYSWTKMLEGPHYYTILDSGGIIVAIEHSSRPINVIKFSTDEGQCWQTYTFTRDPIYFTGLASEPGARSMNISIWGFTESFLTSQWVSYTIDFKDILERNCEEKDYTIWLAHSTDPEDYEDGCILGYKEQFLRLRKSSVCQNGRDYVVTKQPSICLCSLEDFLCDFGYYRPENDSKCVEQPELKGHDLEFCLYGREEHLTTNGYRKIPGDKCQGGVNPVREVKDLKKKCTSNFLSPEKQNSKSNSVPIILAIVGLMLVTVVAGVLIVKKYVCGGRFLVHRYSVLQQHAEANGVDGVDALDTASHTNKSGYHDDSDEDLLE
- procedureText: cell-based or functional assay
Ends that are not written are not given here.
endpointName: Mean Fluorescence Intensity (MFI), uptake 37C-4C, at 7 nM

[
  {
    "binder": "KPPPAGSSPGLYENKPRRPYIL (not fully specified (residue 1); also: X side chain clicked via BCN (triazole) and 6-aminohexanol linker to 5' end of oligonucleotide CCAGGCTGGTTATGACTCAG (MOE, 3'-Cy3))",
    "unitsOfMeasure": "MFI",
    "endpointResult": 51
  },
  {
    "binder": "KAGMSGASAGLYENKPRRPYIL (not fully specified (residue 1); also: X side chain clicked via BCN (triazole) and 6-aminohexanol linker to 5' end of oligonucleotide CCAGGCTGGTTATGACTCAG (MOE, 3'-Cy3))",
    "unitsOfMeasure": "MFI",
    "endpointResult": 55
  }
]
